Reported IC50 is given for each of the following molecules.
Biological target: Human CD38 (Homo sapiens, UniProt P28907)
Construct: purchased BPS Bioscience 79287
Sequence (P28907 1-300): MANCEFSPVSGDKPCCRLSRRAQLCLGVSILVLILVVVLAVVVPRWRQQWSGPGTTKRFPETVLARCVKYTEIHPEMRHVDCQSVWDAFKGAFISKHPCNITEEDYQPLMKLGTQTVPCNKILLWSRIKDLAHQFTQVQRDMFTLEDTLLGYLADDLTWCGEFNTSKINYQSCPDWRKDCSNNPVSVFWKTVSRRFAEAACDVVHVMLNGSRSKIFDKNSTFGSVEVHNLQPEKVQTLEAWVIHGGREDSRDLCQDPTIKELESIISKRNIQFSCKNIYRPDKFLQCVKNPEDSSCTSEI
Test: biochemical
MEASURED_METRIC: IC50 (µM)

molecule="COCCO[C@H]1CC[C@H](NC(=O)c2cc(-c3cncs3)cc3c2ccn3CC(C)(C)O)CC1 [Example 53]" target="Human CD38 (Homo sapiens, UniProt P28907)" measured_metric=IC50 comparative_sign== number=3
molecule="COCCO[C@H]1CC[C@H](NC(=O)c2cc(-n3cccn3)cc3cc[nH]c23)CC1 [Example 2]" target="Human CD38 (Homo sapiens, UniProt P28907)" measured_metric=IC50 comparative_sign=> number=100
molecule="CC1(O)CC(NC(=O)c2cc(-c3cncs3)cc3[nH]ccc23)C1 (stereo not shown) [Example 36]" target="Human CD38 (Homo sapiens, UniProt P28907)" measured_metric=IC50 comparative_sign== number=1.5
molecule="CC(C)(O)[C@H]1CC[C@H](NC(=O)c2cc(-c3cncs3)cc3[nH]ccc23)CC1 [Example 29]" target="Human CD38 (Homo sapiens, UniProt P28907)" measured_metric=IC50 comparative_sign== number=0.123

###

Target: Human CD38 (Homo sapiens, UniProt P28907)
Construct: purchased BPS Bioscience 79287
Test: biochemical
MEASURED_METRIC: IC50 (nM)

smiles_data=COCCO[C@H]1CC[C@H](NC(=O)c2cc(-n3ccnc3)cc3c(CN(C)C)c[nH]c23)CC1 number=800
smiles_data=COCCO[C@H]1CC[C@H](NC(=O)c2cc(-n3ccnc3)cc3c(C=O)c[nH]c23)CC1 number=18000
smiles_data=C[C@H]1CCCC[C@H]1NC(=O)c1cc(-c2cncs2)cc2[nH]ccc12 number=78
smiles_data=COCCO[C@H]1CC[C@H](NC(=O)c2cc(-n3ccnc3)cc3c(C(=O)O)c[nH]c23)CC1 number=580
smiles_data=CS(=O)(=O)CCNC(=O)c1cc(-c2cncs2)cc2[nH]ccc12 number=1000
smiles_data=COCCO[C@H]1C[C@@H](NC(=O)c2cc(-c3cncs3)cc3[nH]ccc23)C1 number=3300
smiles_data=COCCO[C@H]1CC[C@H](NC(=O)c2cc(-c3cncs3)cc3c2ccn3C(C)C)CC1 number=1400
smiles_data=O=C(N[C@H]1C[C@H](O)C1)c1cc(-c2cncs2)cc2[nH]ccc12 number=678

###

Reported pIC50 is given for each of the following compounds.
Molecular target: Human CD38 (Homo sapiens)
Construct: purchased BPS Bioscience 79287
Experiment: biochemical
pIC50: −log10 of the molar value.
MEASURED_METRIC: pIC50

compound="O=C(NC1CCOCC1)c1cc(-c2cncs2)cc2[nH]ccc12 [Example 45]" number=6.18
compound="COCCO[C@H]1CC[C@H](NC(=O)c2cc(-n3ccnc3)cc3c(CN)c[nH]c23)CC1 [Example 17]" number=6.05
compound="COCCO[C@H]1CC[C@H](NC(=O)c2cc(-c3cncs3)cc3[nH]ccc23)C1 (racemic) [Example 34]" number=6.58
compound="O=C(NC1CCS(=O)(=O)CC1)c1cc(-c2cncs2)cc2[nH]ccc12 [Example 24]" number=6.70
compound="COCCO[C@H]1CC[C@H](NC(=O)c2cc(-n3ccnc3)cc3c(I)c[nH]c23)CC1 [Example 22]" number=6.77
compound="CC(NC(=O)c1cc(-c2cncs2)cc2[nH]ccc12)c1ccccc1F (stereo not drawn) [Example 39]" number=6.71
